Test system: SF-295 CNS
Assay: NCI-60 one-dose screen, 48 h
Settings: 10 µM
Method: Cells are grown in 96 well plates and exposed to the test compound for 48 hours. Compounds are tested at a single concentration, which is 10^-5 M for most compounds. The reported endpoint is percent growth (GI% or GIPRCNT), where numbers from 0 - 100% represent growth inhibition, and numbers from -100% - 0 represent cell death. For example, a value of 40 represents 60% growth inhibition. A value of 0 means no net growth occurred over the course of the experiment. […]
About 83,000 compounds went through this panel and 20% of them were active in at least one assay; those are over-represented in the sample as a whole. Active and inactive are the calls of the source. The calls were made as follows: active = growth percent below 10; inactive = the rest.
Answer with one of the outcomes given here: active, inactive

Compound | Class name
O=C1c2ccccc2C(=O)c2c1ccc(C(=O)O)c2[N+](=O)[O-] | inactive
CCOC(=O)C(O)C(O)C(=O)OCC (configuration not stated) | inactive
O=C1OC[C@H]2[C@H](c3ccc(O)c(O)c3)c3cc(O)c(O)cc3C[C@H]12 | inactive

Hey, what did the test say about Cc1ccc(C)n1-c1ccsc1C(=O)NNC(=O)CCl ?
inactive

Moving on to the next compound: Cc1cc(C(O)(c2ccc(Nc3ccccc3)cc2)c2ccc(Nc3ccc(S(=O)(=O)O)cc3)cc2)ccc1N (configuration not stated)
active

---

The entries below come with measured growth values attached.
tested on: MCF7 breast; assay: NCI-60 one-dose screen, 48 h (100 = growth as untreated, 0 = no growth, -100 = all killed); details: 10 µM unless noted
Compounds without any hit were thinned out: in the full panel of roughly 83,000, 20% have a hit.
A number alone suffices; assume %.

Here are 8 compounds together with their reported answers.
Compound | U | growth
O=C(Nc1cccc(NC(=O)Nc2cc(C(F)(F)F)ccc2Cl)c1)Nc1cc(C(F)(F)F)ccc1Cl | % | 6.53
CCCCC(=O)c1ccc(OC)cc1 | % | 97.6
COc1ccccc1N1CCN(C(=S)Nc2ccccc2)CC1 | % | 99.5
CCOC(=O)C(CCC(C)C)C(=O)OCC | % | 97.5
CC(=O)c1ccc(C)c(N)c1 | % | 97.1
CC1NC(=O)NC1CCCCCC(=O)O (stereo not drawn) | % | 99.8
Cc1cc(Cc2cc(C)c(N)cc2N)c(N)cc1N | % | 88.6
O=c1[nH]n(-c2ccccc2)c(=O)cc1Cl | % | 96.8

Could you share which growth value was measured for CCC(=O)Oc1ccc(OC)cc1 ?
102

Also need CCOC(=O)C1=C(Nc2ccc(Br)cc2)C(=O)N(CC)C1 , thanks.
105

Try O=c1[nH]c(O)c(/C=C2/C=Nc3ccccc32)[nH]1 next.
56.3

Try this compound next: COCCOC(=O)c1ccc(C(C)C)cc1
95.6

Input O=C(O)c1cccc([N+](=O)[O-])c1O
119

Same question for O=c1c2ccccc2c(Br)c(Br)c2ccccc12 please.
101

Try this compound next: Nc1ccc(N=Nc2ccc(O)cc2)c(N)n1
93.4

Next compound: CC(C)NC(=O)OCc1c(COC(=O)NC(C)C)c(-c2ccc(Cl)c(Cl)c2)n2c1SCC2
32.2

Next entry: Cc1cc(C)cc(NCCC#N)c1
101

---

test system: SR leukemia; experiment: NCI-60 one-dose screen, 48 h (100 = growth as untreated, 0 = no growth, -100 = all killed); conditions: 10 µM
The panel holds about 83,000 compounds, 20% with a hit somewhere; the sample as a whole holds those more often.
Measured growth by item
State just the number; it will be interpreted in %.

These solved cases illustrate the format of a correct answer.
Compound | U | growth
COc1cc(OC)c2ccc(=O)oc2c1 | % | 125
COc1ccccc1N=Nc1c(O)ccc2cc(S(=O)(=O)O)ccc12 | % | 91.7
CC1(C)OC(=O)C(c2ccsc2)C(=O)O1 | % | 103

Fill blank: measured growth of the compound CCCC(=O)Nc1ccc2c(c1)CN1C(=O)c3ccccc3C1=N2 is ____.
103

Now this one: Cc1cc(=O)n(-c2ccc(F)cc2)[nH]1
97.1

---

system: SNB-75 CNS; experiment: NCI-60 one-dose screen, 48 h (100 = growth as untreated, 0 = no growth, -100 = all killed); details: 10 µM
This is part of a sample that, as a whole, favours compounds with a hit. Of some 83,000 tested, about 20% had one in any assay.
Endpoint name: growth (%)
Report only the number, with the unit % understood.

Below, each entry is followed by its recorded growth result.
Compound | growth, %
O=C1c2ccccc2C(=O)c2c1ccc(C(=O)O)c2[N+](=O)[O-] | 91.2
CCOC(=O)c1coc(C(=O)OCC)c1C(=O)OCC | 92.3
CCN(CC)c1ccc2nc3ccc(=[N+](CC)CC)cc-3oc2c1 | 1.61
COc1cc(/C=C(\C#N)C(=O)c2ccccc2)ccc1OCc1ccccc1 | 91.7
CCCCC(O)c1ccccc1 (stereo unspecified) | 92.2

Now look at this one.
For the compound O=C(CCl)N1CCN(C/C=C/c2ccccc2)CC1 , what growth is on record?
92.6

---

Each entry below lists one item and its recorded growth value.
tested on: BT-549 breast; assay: NCI-60 one-dose screen, 48 h (100 = growth as untreated, 0 = no growth, -100 = all killed); settings: 10 µM
Compounds without any hit were thinned out: in the full panel of roughly 83,000, 20% have a hit.
Write down the numeric answer in % and omit the unit.

Known results for compounds:
Molecule smiles | growth [%]
NC(=S)N/N=C/c1ccc(N)cc1 | 96.3
Cc1cc(N)c(S(=O)(=O)O)c(N)c1 | 57.8
CCCNC(=O)c1ccc(S(N)(=O)=O)cc1 | 120
S=C(Nc1ccccc1)N1CCCCC1 | 112
O=C(CCNNC(=O)c1ccncc1)NCc1ccccc1 | 134
COCCCC/C(=N\OCCN)c1ccc(C(F)(F)F)cc1 | 107

Would you kindly look at the next entry?
Returns the measured growth for the input compound. Input: O=[N+]([O-])c1ccc(S(=O)(=O)NN=C2CCCCC2)cc1
95.5

---

tested on: ACHN renal; test: NCI-60 one-dose screen, 48 h (100 = growth as untreated, 0 = no growth, -100 = all killed); conditions: 10 µM
The panel holds about 83,000 compounds, 20% with a hit somewhere; the sample as a whole holds those more often.
Endpoint name: growth (%)
Record the value in %, omitting the unit from your answer.

Molecule | Target under test | U | growth
Cc1cc(C)c(N)c(S(=O)(=O)O)c1 | ACHN renal | % | 96.6
O=c1c2ccccc2c(Br)c(Br)c2ccccc12 | ACHN renal | % | 53.7
OC(c1ccccn1)C(O)c1ccccn1 (stereo not given) | ACHN renal | % | 98.2
Nc1ccc(N=Nc2ccc(S(=O)(=O)O)cc2)c2ccccc12 | ACHN renal | % | 99.2
COc1cc(C(N)=O)cc(OC)c1OC | ACHN renal | % | 105
Cc1ccc(N)cc1[N+](=O)[O-] | ACHN renal | % | 108

I am curious: what growth value has been reported for c1ncc2[nH]cnc2n1 ?
95.1

Lookup NC(=S)CN1CCOCC1
103

Now try CC(=O)OC(C(=O)O)c1ccccc1 (stereo not given) .
106

Can you check S=c1nn[nH]c2ccccc12 next?
93.2

Please answer likewise for N#Cc1ccc(NC(=O)Nc2cccc(C#N)c2)cc1
92.5

---

test system: NCI-H322M lung; assay: NCI-60 one-dose screen, 48 h (100 = growth as untreated, 0 = no growth, -100 = all killed); details: 10 µM
Compounds without any hit were thinned out: in the full panel of roughly 83,000, 20% have a hit.
Endpoint name: growth (%)
State just the number; it will be interpreted in %.

The examples below pair each entry with its known result.
Compound | Target under test | Test value
CN(c1ccccc1)c1ncnc2c1ncn2C | NCI-H322M lung | 115
OCC1OC(OC2C(O)C(CO)OC2(CO)OC2OC(CO)C(O)C(O)C2O)C(O)C(O)C1O (stereo not drawn) | NCI-H322M lung | 120
CC(=O)Nc1c(C)cc(C)cc1C | NCI-H322M lung | 103

So what does the record say about growth for CC1=C(/C=C/C(C)=C/C=C/C(C)=C/CO)C(C)(C)CCC1 ?
105

Another compound to check: CC(=Nc1ccccc1)C1=C(O)C(Cc2cccc(F)c2)NC1=O (stereo not drawn)
31.8

Note, next up: O=[N+]([O-])c1ccc(Sc2ccncn2)c([N+](=O)[O-])c1
106

// query: CCOC(=O)c1cc2cccc(OC)c2oc1=O
107

Here is the next compound: CC(=O)Oc1ccc(Br)cc1C(=O)O
101

Now the compound COc1cccc(/C=N/NC(=S)NC2CC3CCC2C3)c1O (stereo not drawn)
62.2

Also CCN(CC)c1ccc2nc3ccc(=[N+](CC)CC)cc-3oc2c1 , if possible.
10.7

And Nc1nc(N)c(N=Nc2ccc(C(=O)O)cc2)c(N)n1 ?
104

Same lookup for O=C1C=C(O)C(=O)C=C1O , please.
112

Another: Cc1ncc(C#N)c(N)n1
89.1

Thanks! And CCCCCCCCO ?
108

# repeat for C[C@@H](c1ccccc1)[C@@H](C(=O)O)c1ccccc1
97.5

Try this compound too: COCCOC(=O)c1ccc(C(C)C)cc1
98.2

Now try CC(=O)OC1CC2C(C)(C)OC3CC(=O)OCC32C2CCC3(C)C(=CCC3c3ccoc3)C12C (stereo not drawn) .
111

What do we get for O=C(O)c1cccc([N+](=O)[O-])c1O ?
97.3

For O/N=C/c1ccc(O)cc1O then?
117

Then what about the compound O=C(/C(=N/O)c1ccccc1)c1ccccc1 ?
95.8
